experiment-notes: Cytotoxicity against human CRL8799 cells assessed as cell survival at 20 to 100 uM after 72 hrs by neutral red dye assay
Assay type: cell-based
protocol-conditions: read-out: Survival
Please map values of viability at 72 h, up to 100 µM to classes as shown: low = under 4%, mid = from 4% up to 90%, high = 90% and over

Reference set, count: 5
>  <sample-smiles>
c1ccc2c(CCNc3nc(NCCc4c[nH]c5ccccc45)c4cccnc4n3)c[nH]c2c1

>  <group-label>
mid

$$$$
>  <sample-smiles>
c1ccc(CCNc2ccnc(NCCc3ccccc3)n2)cc1

>  <group-label>
mid

$$$$
>  <sample-smiles>
Cc1ccc(CCNc2nc(NCCc3ccc(C)cc3)c3ccccc3n2)cc1

>  <group-label>
low

$$$$
>  <sample-smiles>
COc1ccc(CNc2nc(NCc3ccc(OC)cc3)c3cccnc3n2)cc1

>  <group-label>
mid

$$$$
>  <sample-smiles>
Clc1ccc(CNc2nc(NCc3ccc(Cl)cc3)c3ccccc3n2)cc1

>  <group-label>
low

$$$$

Band assignment needed for Cc1ccc(CNc2nc(NCc3ccc(C)cc3)c3cccnc3n2)cc1 please. high

====

experiment-notes: Cytotoxicity against human CRL11233 cells assessed as cell survival at 20 to 100 uM after 72 hrs by neutral red dye assay
Format: cell-based
protocol-conditions: read-out: Survival
parameter-measured: viability at 72 h, up to 100 µM (%)
Write the answer as a number in %, unit excluded.

Recorded viability at 72 h, up to 100 µM, per entry:
>  <sample-smiles>
c1ccc(CCCCNc2nc(NCCCCc3ccccc3)c3cccnc3n2)cc1

>  <unit-label>
%

>  <measurement>
82

$$$$
>  <sample-smiles>
Cc1ccc(CNc2ccnc(NCc3ccc(C)cc3)n2)cc1

>  <unit-label>
%

>  <measurement>
1

$$$$
>  <sample-smiles>
CCCCCNc1nc(SC(C)C)nc2ncccc12

>  <unit-label>
%

>  <measurement>
66

$$$$
>  <sample-smiles>
CCCCCCNc1nc(NCCCCCC)c2ccccc2n1

>  <unit-label>
%

>  <measurement>
0

$$$$
>  <sample-smiles>
CCCCNc1nc(NCCCC)c2ccccc2n1

>  <unit-label>
%

>  <measurement>
1

$$$$

// viability at 72 h, up to 100 µM lookup, key: c1ccc(CCCNc2ccnc(NCCCc3ccccc3)n2)cc1 1

// viability at 72 h, up to 100 µM lookup, key: c1ccc(CCCNc2nc(NCCCc3ccccc3)c3cccnc3n2)cc1 0

====

System: HT-29
experiment-notes: Cytotoxicity against human HT-29 cells after 72 hrs by neutral red dye assay
Type: functional, cell-based
protocol-conditions: HT-29, 72 h
Parameter: pIC50. Scope: all listed entries.
Quick note: pIC50 values are minus log10 of concentrations in mol/L.

>  <sample-smiles>
c1ccc(CCCNc2ccnc(NCCCc3ccccc3)n2)cc1

>  <parameter-measured>
pIC50

>  <measurement>
4.91

$$$$
>  <sample-smiles>
c1ccc(CNc2ccnc(NCc3ccccc3)n2)cc1

>  <parameter-measured>
pIC50

>  <measurement>
4.76

$$$$
>  <sample-smiles>
CCCCCNc1nc(NCCCCC)c2cccnc2n1

>  <parameter-measured>
pIC50

>  <measurement>
6.24

$$$$
>  <sample-smiles>
Cc1ccc(CNc2nc(NCc3ccc(C)cc3)c3cccnc3n2)cc1

>  <parameter-measured>
pIC50

>  <measurement>
5.12

$$$$
>  <sample-smiles>
c1ccc(CNc2nc(NCc3ccccc3)c3ccccc3n2)cc1

>  <parameter-measured>
pIC50

>  <measurement>
5.33

$$$$
>  <sample-smiles>
CCNc1nc(SCC)nc2ncccc12

>  <parameter-measured>
pIC50

>  <measurement>
4.58

$$$$
>  <sample-smiles>
CCCNc1nc(NCCC)c2ccccc2n1

>  <parameter-measured>
pIC50

>  <measurement>
4.72

$$$$
>  <sample-smiles>
Cc1ccc(CNc2ccnc(NCc3ccc(C)cc3)n2)cc1

>  <parameter-measured>
pIC50

>  <measurement>
4.83

$$$$

// pIC50 lookup, key: CCCCNc1nc(SC(C)C)nc2ncccc12 4.49

// pIC50 lookup, key: CCCCNc1nc(SCC)nc2ncccc12 4.60

// pIC50 lookup, key: c1ccc(CCNc2nc(NCCc3ccccc3)c3cccnc3n2)cc1 5.60

// pIC50 lookup, key: CCCCCCNc1nc(NCCCCCC)c2ccccc2n1 5.24

// pIC50 lookup, key: CCCCCCNc1nc(SCC)nc2ncccc12 4.65

====

Parameter: viability at 100 µM. Scope: all listed entries.
Test system: T-24
experiment-notes: Cytotoxicity against human T24 cells assessed as cell survival at 100 uM after 72 hrs by neutral red dye assay
Format: functional
protocol-conditions: T-24, 72 h, read-out: Survival

Recorded viability at 100 µM, per entry:
>  <sample-smiles>
COc1ccc(CNc2ccnc(NCc3ccc(OC)cc3)n2)cc1

>  <system-name>
T-24

>  <viability at 100 µM>
< 45%

$$$$
>  <sample-smiles>
c1ccc(CCNc2nc(NCCc3ccccc3)c3ccccc3n2)cc1

>  <system-name>
T-24

>  <viability at 100 µM>
< 45%

$$$$
>  <sample-smiles>
c1ccc(CCCCNc2nc(NCCCCc3ccccc3)c3cccnc3n2)cc1

>  <system-name>
T-24

>  <viability at 100 µM>
< 45%

$$$$

// viability at 100 µM lookup, key: CCCCCNc1nc(NCCCCC)c2cccnc2n1 < 45%

// viability at 100 µM lookup, key: c1ccc(CNc2nc(NCc3ccccc3)c3ccccc3n2)cc1 < 45%

// viability at 100 µM lookup, key: CCCCCNc1nc(SCCCC)nc2ncccc12 < 45%

// viability at 100 µM lookup, key: CCCCCCCNc1nc(SC(C)C)nc2ncccc12 < 45%

// viability at 100 µM lookup, key: Cc1ccc(CCNc2nc(NCCc3ccc(C)cc3)c3ccccc3n2)cc1 < 45%

====

System: HT-29
experiment-notes: Cytotoxicity against human HT-29 cells after 72 hrs by neutral red dye assay
Assay type: functional, cell-based
protocol-conditions: HT-29, 72 h
parameter-measured: pIC50
Quick note: pIC50 values are minus log10 of concentrations in mol/L.

Recorded pIC50, per entry:
>  <sample-smiles>
CCCCNc1nc(NCCCC)c2ccccc2n1

>  <parameter-measured>
pIC50

>  <measurement>
5.16

$$$$
>  <sample-smiles>
CCCCCCNc1nc(SCCCC)nc2ncccc12

>  <parameter-measured>
pIC50

>  <measurement>
5.55

$$$$
>  <sample-smiles>
c1ccc(CCCCNc2nc(NCCCCc3ccccc3)c3ccccc3n2)cc1

>  <parameter-measured>
pIC50

>  <measurement>
5.42

$$$$
>  <sample-smiles>
c1ccc(CNc2nc(NCc3ccccc3)c3cccnc3n2)cc1

>  <parameter-measured>
pIC50

>  <measurement>
4.96

$$$$
>  <sample-smiles>
Brc1ccc(CCNc2nc(NCCc3ccc(Br)cc3)c3ccccc3n2)cc1

>  <parameter-measured>
pIC50

>  <measurement>
5.46

$$$$
>  <sample-smiles>
CCCCCCNc1nc(SC(C)C)nc2ncccc12

>  <parameter-measured>
pIC50

>  <measurement>
4.69

$$$$

// pIC50 lookup, key: CCCCCNc1nc(SCC)nc2ncccc12 5.29

// pIC50 lookup, key: c1ccc(CCNc2ccnc(NCCc3ccccc3)n2)cc1 5.16

// pIC50 lookup, key: c1ccc(CCCNc2nc(NCCCc3ccccc3)c3cccnc3n2)cc1 5.77

// pIC50 lookup, key: c1ccc(CCNc2nc(NCCc3ccccc3)c3ccccc3n2)cc1 5.64

// pIC50 lookup, key: Cc1ccc(CCNc2nc(NCCc3ccc(C)cc3)c3ccccc3n2)cc1 5.79

// pIC50 lookup, key: CCCCCCCNc1nc(SCC)nc2ncccc12 4.70

====

experiment-notes: Cytotoxicity against human CRL8799 cells assessed as cell survival at 20 to 100 uM after 72 hrs by neutral red dye assay
Assay type: cell-based
protocol-conditions: read-out: Survival
parameter-measured: viability at 72 h, up to 100 µM (%)
Write the answer as a number in %, unit excluded.

// viability at 72 h, up to 100 µM lookup, key: CCCNc1nc(NCCC)c2ccccc2n1 0

// viability at 72 h, up to 100 µM lookup, key: CCCCCCNc1nc(SCCCC)nc2ncccc12 95

// viability at 72 h, up to 100 µM lookup, key: Clc1ccc(CNc2ccnc(NCc3ccc(Cl)cc3)n2)cc1 0

// viability at 72 h, up to 100 µM lookup, key: c1ccc(CCCCNc2nc(NCCCCc3ccccc3)c3cccnc3n2)cc1 86

====

Parameter: viability at 72 h, up to 100 µM. Scope: all listed entries.
experiment-notes: Cytotoxicity against human CRL11233 cells assessed as cell survival at 20 to 100 uM after 72 hrs by neutral red dye assay
Type: cell-based
protocol-conditions: read-out: Survival
Write the answer as a number in %, unit excluded.

>  <sample-smiles>
c1ccc(CCCNc2nc(NCCCc3ccccc3)c3ccccc3n2)cc1

>  <viability at 72 h, up to 100 µM / %>
2

$$$$

--- query ---
// viability at 72 h, up to 100 µM lookup, key: Cc1ccc(CNc2nc(NCc3ccc(C)cc3)c3cccnc3n2)cc1 100
